Target: DNA topoisomerase 1 (Homo sapiens)
Sequence (whole entry): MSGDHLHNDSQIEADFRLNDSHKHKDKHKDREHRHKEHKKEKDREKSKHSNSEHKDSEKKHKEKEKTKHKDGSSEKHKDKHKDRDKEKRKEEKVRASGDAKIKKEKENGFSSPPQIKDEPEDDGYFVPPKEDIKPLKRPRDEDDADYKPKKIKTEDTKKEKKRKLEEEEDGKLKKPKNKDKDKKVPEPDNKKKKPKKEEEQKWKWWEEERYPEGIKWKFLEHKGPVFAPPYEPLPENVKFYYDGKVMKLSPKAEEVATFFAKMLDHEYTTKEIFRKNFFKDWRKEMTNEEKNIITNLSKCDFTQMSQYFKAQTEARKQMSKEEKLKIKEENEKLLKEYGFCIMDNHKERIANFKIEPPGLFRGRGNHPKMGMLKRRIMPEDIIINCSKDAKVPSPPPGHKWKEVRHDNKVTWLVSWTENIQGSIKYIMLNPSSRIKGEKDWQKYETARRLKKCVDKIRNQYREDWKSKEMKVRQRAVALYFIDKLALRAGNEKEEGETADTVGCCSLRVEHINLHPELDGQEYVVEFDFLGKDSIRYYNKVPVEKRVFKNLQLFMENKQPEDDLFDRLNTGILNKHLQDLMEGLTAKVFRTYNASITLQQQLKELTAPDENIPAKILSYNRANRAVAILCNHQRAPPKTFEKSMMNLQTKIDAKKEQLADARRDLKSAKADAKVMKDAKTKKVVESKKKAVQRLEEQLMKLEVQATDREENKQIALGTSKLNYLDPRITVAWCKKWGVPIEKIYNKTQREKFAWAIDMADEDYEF
Test: Inhibition of human topoisomerase 1 mediated relaxation of supercoiled pHOT1 DNA at 5 to 20 uM incubated for 30 mins by agarose gel electrophoresis
Conditions: dose 5-20 µM
Activity calls are given as the source filed them. The rule behind the calls is not given here.
Result category, one only: yes (1) for active, no (0) for inactive

CN1CCN(c2ccc3c(c2)c2cc(N4CCN(C)CC4)ccc2c2nc4cc(Oc5ccccc5)ccc4nc32)CC1 no (0)
CC1CCN(c2cc3nc4c5ccc(N6CCN(C)CC6)cc5c5cc(N6CCN(C)CC6)ccc5c4nc3cc2F)CC1 no (0)
CN1CCN(c2ccc(-c3nc4cc(F)c(F)cc4nc3-c3ccc(N4CCN(C)CC4)cc3)cc2)CC1 no (0)
CN1CCN(c2ccc3c(c2)c2cc(N4CCN(C)CC4)ccc2c2nc4ccccc4nc32)CC1 yes (1)
CN1CCN(c2ccc3c(c2)c2cc(N4CCN(C)CC4)ccc2c2nc4cc(C(F)(F)F)ccc4nc32)CC1 no (0)

-- ask Hi, do you know how COc1cc2nc3c4ccc(N5CCN(C)CC5)cc4c4cc(N5CCN(C)CC5)ccc4c3nc2cc1OC came out in this test?
-- reply no (0)

-- ask Next entry: COc1ccc2nc3c4ccc(N5CCN(C)CC5)cc4c4cc(N5CCN(C)CC5)ccc4c3nc2c1
-- reply yes (1)

-- ask Next entry: CN1CCN(c2ccc3c(c2)c2cc(N4CCN(C)CC4)ccc2c2nc4cnccc4nc32)CC1
-- reply yes (1)
